Taken from ChEMBL document CHEMBL1671867.

System: Enterobacter cloacae
Test: Antibacterial activity against Enterobacter cloacae ATCC 23355 […] by Etest method in presence of 1 ug/ml NAB7061
Format: functional
Criterion: MIC strictly under 8 µg/mL. Met: true (1). Not met: false (0).

See these solved cases before continuing.
MOLECULE	CAT
CC[C@H]1OC(=O)[C@H](C)[C@@H](O[C@H]2C[C@@](C)(OC)[C@@H](O)[C@H](C)O2)[C@H](C)[C@@H](O[C@@H]2O[C@H](C)C[C@H](N(C)C)[C@H]2O)[C@](C)(O)C[C@@H](C)CN(C)[C@H](C)[C@@H](O)[C@]1(C)O [AZITHROMYCIN]	true (1)
CC[C@H]1OC(=O)[C@H](C)[C@@H](O[C@H]2C[C@@](C)(OC)[C@@H](O)[C@H](C)O2)[C@H](C)[C@@H](O[C@@H]2O[C@H](C)C[C@H](N(C)C)[C@H]2O)[C@](C)(O)C[C@@H](C)C(=O)[C@H](C)[C@@H](O)[C@]1(C)O [ERYTHROMYCIN]	false (0)
C/C(=C\C(=O)OCCCCCCCCC(=O)O)C[C@@H]1OC[C@H](C[C@@H]2O[C@H]2[C@@H](C)[C@H](C)O)[C@@H](O)[C@H]1O [MUPIROCIN]	false (0)

// next entry
Request: is_below(MIC, 8 µg/mL) for CC[C@H]1OC(=O)[C@H](C)[C@@H](O[C@H]2C[C@@](C)(OC)[C@@H](O)[C@H](C)O2)[C@H](C)[C@@H](O[C@@H]2O[C@H](C)C[C@H](N(C)C)[C@H]2O)[C@](C)(OC)C[C@@H](C)C(=O)[C@H](C)[C@@H](O)[C@]1(C)O [CLARITHROMYCIN] ?
Result: false (0)

====

Tested on: Enterobacter cloacae
Assay: Antibacterial activity against Enterobacter cloacae ATCC 23355 […] by Etest method in presence of NAB7061
Format: functional
# MIC per record follows
Numeric answer only, unit µg/mL assumed.

Previously resolved entries follow.
COMPOUND	MIC, µg/mL
CC[C@H]1OC(=O)[C@H](C)[C@@H](O[C@H]2C[C@@](C)(OC)[C@@H](O)[C@H](C)O2)[C@H](C)[C@@H](O[C@@H]2O[C@H](C)C[C@H](N(C)C)[C@H]2O)[C@](C)(OC)C[C@@H](C)C(=O)[C@H](C)[C@@H](O)[C@]1(C)O [CLARITHROMYCIN]	0.273
C/C(=C\C(=O)OCCCCCCCCC(=O)O)C[C@@H]1OC[C@H](C[C@@H]2O[C@H]2[C@@H](C)[C@H](C)O)[C@@H](O)[C@H]1O [MUPIROCIN]	0.293
CO[C@H]1/C=C/O[C@@]2(C)Oc3c(C)c(O)c4c(O)c(c(/C=N/N5CCN(C)CC5)c(O)c4c3C2=O)NC(=O)/C(C)=C\C=C\[C@H](C)[C@H](O)[C@@H](C)[C@@H](O)[C@@H](C)[C@H](OC(C)=O)[C@@H]1C [RIFAMPIN]	0.26
CC[C@H]1OC(=O)[C@H](C)[C@@H](O[C@H]2C[C@@](C)(OC)[C@@H](O)[C@H](C)O2)[C@H](C)[C@@H](O[C@@H]2O[C@H](C)C[C@H](N(C)C)[C@H]2O)[C@](C)(O)C[C@@H](C)CN(C)[C@H](C)[C@@H](O)[C@]1(C)O [AZITHROMYCIN]	0.438

// next item, MIC requested
Request: // returns reported MIC for input CC[C@H]1OC(=O)[C@H](C)[C@@H](O[C@H]2C[C@@](C)(OC)[C@@H](O)[C@H](C)O2)[C@H](C)[C@@H](O[C@@H]2O[C@H](C)C[C@H](N(C)C)[C@H]2O)[C@](C)(O)C[C@@H](C)C(=O)[C@H](C)[C@@H](O)[C@]1(C)O [ERYTHROMYCIN]
Result: 0.375
